# EXPERIMENTAL_TARGET: recombinant HIV reverse transcriptase (HIV RTR) (Human immunodeficiency virus type 1 group M subtype B, UniProt P04585)
# Construct: recombinant HIV reverse transcriptase (HIV RTR)
# ASSAY_EXPLANATION: Reverse transcriptase assay (incorporation of tritiated dGMP into acid-precipitable cDNA)
# CONDITION_DETAILS: [dGTP] and poly r(C).oligo d(G)12-18 at approx. Km; 37° C., 45 minutes; read-out: calculated IC50

{"columns": ["MOLECULE", "IC50"],
 "data": [
  ["CCc1cc(CCc2nc3ccccc3o2)c(=O)[nH]c1CO [compound (I)]", "~44 nM"]
]}

====

# ASSAY_EXPLANATION: Incubation with rat liver slices (metabolism)
# Assay type: in vitro ADME
# CONDITION_DETAILS: tritiated compound 14.18 μmol, rat liver slices 6.1 g, Williams Medium E, pH 7.4, 37° C., four hours

{"columns": ["SMILES_STRUCTURE", "metabolised at 4 h"],
 "data": [
  ["CCc1cc(CCc2nc3ccccc3o2)c(O)nc1C", "~32%"]
]}
